Molecular target: T1, FLRT3 (antigen of the binning assay of Table 2) (Homo sapiens (Human), UniProt Q9NZU0 29-528, limits assumed)
T1 construct: the whole entry for FLRT3 is named
T1 sequence: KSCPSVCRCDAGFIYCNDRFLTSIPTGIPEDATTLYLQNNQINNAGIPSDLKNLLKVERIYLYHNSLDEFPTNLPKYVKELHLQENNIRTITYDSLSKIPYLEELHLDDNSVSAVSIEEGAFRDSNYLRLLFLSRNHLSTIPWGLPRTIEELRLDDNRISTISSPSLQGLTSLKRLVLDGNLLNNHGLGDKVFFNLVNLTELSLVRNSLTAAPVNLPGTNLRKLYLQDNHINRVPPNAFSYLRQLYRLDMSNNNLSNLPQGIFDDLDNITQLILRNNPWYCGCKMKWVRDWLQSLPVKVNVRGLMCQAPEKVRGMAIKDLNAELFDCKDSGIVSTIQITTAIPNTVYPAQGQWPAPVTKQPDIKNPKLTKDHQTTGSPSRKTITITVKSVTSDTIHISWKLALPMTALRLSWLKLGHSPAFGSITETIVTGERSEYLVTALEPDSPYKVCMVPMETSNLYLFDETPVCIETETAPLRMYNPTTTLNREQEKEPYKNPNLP
Assay: antibody binning matrix (Table 2); competitor: 2F7
EXPERIMENTAL_ENDPOINT: binning response (no name or unit printed)
Give the figure only, with no unit attached.

The examples below pair each entry with its known result.
binder="14D3 (antibody, V domains shown, Variable domains only) VH: EIQLQQSGAELVKPGASVKISCKASGYSFTGYNMNWVKQSHGKSLEWIGNITPYYGSASYNQKFKGKATLTVDKSSSTAYMQLNSLTSEDSAVYYCARRSYDYDENAMDYWGQGTSVTVSS VL: DIVMTQSHKFMSTSVGDRVSITCKASQDLSTAVAWYQQKPGQSPKLLIYSASYRYTGVPDRFTGSGSGTDFTFTISSVQAEDLAVYYCQQHYSTPLTFGAGTKLELK" observed_result=0.75
binder="1H5 (antibody, V domains shown, Variable domains only) VH: EVQLQQSGPELVKPGASVKMSCKASGYTFTDYYMNWVKQSHGKSLEWIGRVNPSNGVTSYNQKFKGKAALTVDKSLSTAYMQLNSLTSEDSAVYYCARDFLMDYWGQGTSVTVSS VL: DIVMTQSHKFMSTSVGDRVTITCKASQDVGTAVAWYQQKPGQSPKLLIYWASTRHTGVPDRFTGSGSGTDFTLTISNVQSEDLADYFCQQYSSYPTFGGGTKLEIK" observed_result=-0.0098

Now for another entry.
Notebook: 2F7 (antibody, V domains shown, Variable domains only) VH: EVQLQQSGPELVKPGASVKMSCKASGYTFTDYYMNWVKQSHGKSLEWIGRVYPSNSGASYNQKFKGKATLTVDKSLSTAYMQLNSLTSEDSAVYYCASSYYFDYWGQGTTLTVSS VL: DIVMTQSHKFMSTSIGDRVNITCKASQDVGTAVAWFQQKPGQSPKLLIYWASTRHTGVPDRFTGSGSGTDFTLTISNVQSEDLADYFCQQYSSYPTFGAGTTLELK , binning response (no name or unit printed) read as -0.0655
